- system_tested: EGFR[T790M/C797S/d746-750] (Homo sapiens, UniProt P00533, C797S/DEL746-750/T790M)
- Construct: purchased Carna Bio
- Sequence (P00533 with tags, fused parts or gaps DEL746-750/T790M/C797S limits assumed): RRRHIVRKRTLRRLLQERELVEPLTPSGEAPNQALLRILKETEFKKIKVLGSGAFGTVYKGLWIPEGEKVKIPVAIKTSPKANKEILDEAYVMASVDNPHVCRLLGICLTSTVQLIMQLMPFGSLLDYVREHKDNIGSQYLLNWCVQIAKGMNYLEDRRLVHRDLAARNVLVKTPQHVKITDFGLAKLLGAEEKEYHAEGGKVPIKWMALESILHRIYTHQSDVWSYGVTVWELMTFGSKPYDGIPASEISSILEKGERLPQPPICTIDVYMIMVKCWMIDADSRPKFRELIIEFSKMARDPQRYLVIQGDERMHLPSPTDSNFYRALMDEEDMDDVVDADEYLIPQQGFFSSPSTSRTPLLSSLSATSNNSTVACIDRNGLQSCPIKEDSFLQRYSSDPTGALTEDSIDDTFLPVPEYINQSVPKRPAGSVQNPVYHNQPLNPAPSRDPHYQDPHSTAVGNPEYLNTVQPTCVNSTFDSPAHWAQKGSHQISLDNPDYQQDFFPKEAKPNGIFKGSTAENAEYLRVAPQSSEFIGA
- experiment: Inhibition of EGFR[T790M/C797S/d746-750] biochemical enzymatic activity (HTRF)
- details: EGFR T790M-C797S-Del19, 1 mM ATP, 1 h, room temperature, read-out: IC50 (nM) @T790M - C797S - Del19
assay_endpoint: IC50 (nM)
A number alone suffices; assume nM.

// below: answered compounds
Data request: Which IC50 value is on record for CCN1CCN(c2ccc3nc4n(c3c2)C23CCC(CN(CCOc5c(cnn5C)-c5cc(cn(C)c5=O)C(=O)N4)C2)C3)CC1 (single isomer, unassigned) [Example A107A] ?
Data returned: 2860

Data request: Input CN1CCN(c2ccc3nc4n(c3c2)CCN(CC(F)(F)F)CCOc2c(cnn2C2CC2)-c2cc(cn(C)c2=O)C(=O)N4)CC1 [Example A2]
Data returned: 3.7

Data request: Input CCn1ncc2c1OCCC[C@@H](C)Cn1c(nc3ccc(N4CCN(C)CC4)cc31)NC(=O)c1cc-2c(=O)n(C)c1 [Example A21]
Data returned: 7.1

Data request: Input C[C@@H]1CCCOc2c(cnn2C)-c2cc(cn(C)c2=O)C(=O)Nc2nc3ccc(N4CCC5(CN(C)C5)C4)cc3n2C1 [Example A43]
Data returned: 4.4

Now look at this entry.
Data request: Which IC50 value is on record for C[C@@H]1CCCOc2c(cnn2C)-c2cc(cn(C)c2=O)C(=O)Nc2nc3ccc(N4CCC(N(C)C)C(F)(F)C4)cc3n2C1 (stereo partly drawn) [Example A51] ?
Data returned: 12

* * *

- system_tested: EGFR wild type (Homo sapiens, UniProt P00533)
- Construct: purchased Carna Bio
- Sequence (P00533 25-1210): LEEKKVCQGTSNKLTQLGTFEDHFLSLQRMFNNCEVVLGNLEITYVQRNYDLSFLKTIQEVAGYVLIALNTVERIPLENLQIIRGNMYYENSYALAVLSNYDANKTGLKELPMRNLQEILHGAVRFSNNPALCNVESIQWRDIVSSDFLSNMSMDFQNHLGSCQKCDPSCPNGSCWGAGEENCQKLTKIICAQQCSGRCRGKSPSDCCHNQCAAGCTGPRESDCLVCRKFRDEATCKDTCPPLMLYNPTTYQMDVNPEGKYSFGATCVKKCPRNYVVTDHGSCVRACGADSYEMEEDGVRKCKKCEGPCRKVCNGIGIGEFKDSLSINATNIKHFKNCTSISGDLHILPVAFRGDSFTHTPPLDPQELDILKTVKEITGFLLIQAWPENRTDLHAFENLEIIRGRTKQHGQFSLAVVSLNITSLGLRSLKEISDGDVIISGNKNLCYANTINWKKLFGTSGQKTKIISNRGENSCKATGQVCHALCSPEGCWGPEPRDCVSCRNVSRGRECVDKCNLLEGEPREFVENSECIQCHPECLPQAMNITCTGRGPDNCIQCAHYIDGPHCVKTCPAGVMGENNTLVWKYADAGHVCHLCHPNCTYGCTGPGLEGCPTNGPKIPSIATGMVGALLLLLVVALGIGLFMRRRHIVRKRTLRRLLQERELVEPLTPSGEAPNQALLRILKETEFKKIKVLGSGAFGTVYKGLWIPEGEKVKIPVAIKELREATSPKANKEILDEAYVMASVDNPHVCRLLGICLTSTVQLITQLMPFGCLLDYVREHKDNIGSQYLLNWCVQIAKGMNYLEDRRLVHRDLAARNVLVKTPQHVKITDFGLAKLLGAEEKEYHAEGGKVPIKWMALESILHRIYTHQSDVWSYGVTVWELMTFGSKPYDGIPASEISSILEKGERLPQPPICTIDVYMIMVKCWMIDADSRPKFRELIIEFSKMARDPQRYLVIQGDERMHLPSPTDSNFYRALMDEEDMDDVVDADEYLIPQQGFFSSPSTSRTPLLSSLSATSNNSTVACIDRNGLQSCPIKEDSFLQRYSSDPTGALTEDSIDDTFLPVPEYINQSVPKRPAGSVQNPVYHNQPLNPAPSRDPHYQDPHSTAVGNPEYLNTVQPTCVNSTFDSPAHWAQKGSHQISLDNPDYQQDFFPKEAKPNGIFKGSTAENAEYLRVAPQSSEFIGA
- experiment: Inhibition of EGFR wild type biochemical enzymatic activity (HTRF)
- details: EGFR WT, 1 mM ATP, 1 h, room temperature, read-out: IC50 (nM) @WT
assay_endpoint: IC50 (nM)
A number alone suffices; assume nM.

// below: answered molecules
Data request: Which IC50 value is on record for CN(C)C1CN(c2ccc3nc4n(c3c2)C23CCC(CN(CCOc5c(cnn5C)-c5cc(cn(C)c5=O)C(=O)N4)C2)C3)CC1F (single isomer, unassigned) [Example A84D] ?
Data returned: 196

Data request: Input CN1CCC2CN(c3ccc4nc5n(c4c3)C34CCC(CN(CCOc6c(cnn6C)-c6cc(cn(C)c6=O)C(=O)N5)C3)C4)CC21 (single isomer, unassigned) [Example A79B]
Data returned: 126

Data request: Input CN1CC2(CCN(c3ccc4nc5n(c4c3)C34CCC(CN(CCOc6c(cnn6C)-c6cc(cn(C)c6=O)C(=O)N5)C3)C4)C2)C1 (single isomer, unassigned) [Example A73B]
Data returned: 13

Now look at this entry.
Data request: Which IC50 value is on record for CN1CCC12CCN(c1ccc3nc4n(c3c1)C13CCC(CC1)CN(CCOc1c(cnn1C)-c1cc(cn(C)c1=O)C(=O)N4)C3)CC2 [Example A122] ?
Data returned: 1420

* * *

Below, each of the molecules is paired with its reported pIC50 value.
- system_tested: EGFR wild type (Homo sapiens, UniProt P00533)
- Construct: purchased Carna Bio
- experiment: Inhibition of EGFR wild type biochemical enzymatic activity (HTRF)
- details: IC50 @WT, EGFR wild type, 1 mM ATP, 1 h at room temperature
Quick note: pIC50 values are minus log10 of concentrations in mol/L.

Data request: Which pIC50 value is on record for Cc1cc2cc(n1)-c1cnn(C)c1OCCN1CC3CCC(CC3)(C1)n1c(nc3ccc(N4CCC(N(C)C)CC4)cc31)NC2=O ?
Data returned: 5.45

Now look at this entry.
Data request: Which pIC50 value is on record for Cc1cc2cc(n1)-c1cnn(C)c1OCCN1CC3CCC(C3)(C1)n1c(nc3ccc(N4CCC(N(C)C)CC4)cc31)NC2=O (single isomer, unassigned) [Example B40B] ?
Data returned: 7.00

* * *

- system_tested: EGFR[T790M/C797S/L858R] (Homo sapiens, UniProt P00533, C797S/L858R/T790M)
- Construct: purchased Carna Bio
- Sequence (P00533 25-1210 T790M/C797S/L858R): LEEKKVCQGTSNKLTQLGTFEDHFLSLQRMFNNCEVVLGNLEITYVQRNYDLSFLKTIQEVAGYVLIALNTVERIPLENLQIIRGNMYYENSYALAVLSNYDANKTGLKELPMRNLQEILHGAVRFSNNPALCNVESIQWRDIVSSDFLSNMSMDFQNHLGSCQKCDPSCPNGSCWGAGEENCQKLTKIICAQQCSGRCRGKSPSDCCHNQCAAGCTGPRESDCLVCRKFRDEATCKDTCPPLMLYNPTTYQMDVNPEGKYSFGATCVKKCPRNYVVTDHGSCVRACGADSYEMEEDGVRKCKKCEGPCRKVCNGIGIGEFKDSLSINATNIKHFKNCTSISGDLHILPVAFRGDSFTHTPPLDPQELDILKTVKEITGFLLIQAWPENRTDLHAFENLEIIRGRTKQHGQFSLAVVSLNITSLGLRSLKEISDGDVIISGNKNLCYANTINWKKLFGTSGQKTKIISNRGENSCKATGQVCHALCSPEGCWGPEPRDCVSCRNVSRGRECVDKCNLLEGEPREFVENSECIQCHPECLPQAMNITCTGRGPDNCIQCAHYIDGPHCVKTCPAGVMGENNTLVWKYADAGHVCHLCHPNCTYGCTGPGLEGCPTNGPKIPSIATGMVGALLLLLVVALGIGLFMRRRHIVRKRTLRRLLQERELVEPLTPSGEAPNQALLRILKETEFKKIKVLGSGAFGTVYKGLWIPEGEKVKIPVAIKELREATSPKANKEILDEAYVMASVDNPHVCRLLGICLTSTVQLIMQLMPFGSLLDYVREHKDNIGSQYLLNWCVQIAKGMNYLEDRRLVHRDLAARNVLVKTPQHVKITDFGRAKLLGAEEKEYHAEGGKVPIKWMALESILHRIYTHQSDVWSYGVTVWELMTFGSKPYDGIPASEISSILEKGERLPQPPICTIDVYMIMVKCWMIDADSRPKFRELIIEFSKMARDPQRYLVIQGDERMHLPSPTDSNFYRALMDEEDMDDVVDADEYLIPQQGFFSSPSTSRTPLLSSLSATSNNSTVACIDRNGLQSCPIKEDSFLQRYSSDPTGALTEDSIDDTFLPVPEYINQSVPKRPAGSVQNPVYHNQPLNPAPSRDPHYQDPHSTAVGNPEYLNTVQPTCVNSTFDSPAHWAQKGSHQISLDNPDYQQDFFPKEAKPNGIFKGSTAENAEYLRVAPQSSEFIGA
- experiment: Inhibition of EGFR[T790M/C797S/L858R] biochemical enzymatic activity (HTRF)
- details: EGFR T790M-C797S-L858R, 1 mM ATP, 1 h, room temperature, read-out: IC50 (nM) @T790M- C797S - L858R
Below, each of the compounds is paired with its reported IC50 value.
A number alone suffices; assume nM.

// below: answered compounds
Data request: Give recorded IC50 with EGFR[T790M/C797S/L858R] (Homo sapiens, UniProt P00533, C797S/L858R/T790M) for the following compound: CCN1CCN(c2ccc3nc4n(c3c2)C[C@H](C)CCCOc2c(cnn2C)-c2cc(cn(C)c2=O)C(=O)N4)CC1
Data returned: 5.1

Data request: Input CN1C2CC1CN(c1ccc3nc4n(c3c1)C13CCC(CN(CCOc5c(cnn5C)-c5cc(cn(C)c5=O)C(=O)N4)C1)C3)C2 (single isomer, unassigned) [Example A98B]
Data returned: 2.3

More entries:
Data request: Give recorded IC50 with EGFR[T790M/C797S/L858R] (Homo sapiens, UniProt P00533, C797S/L858R/T790M) for the following compound: C[C@@H]1CCCOc2c(cnn2C)-c2cc(cn(C)c2=O)C(=O)Nc2nc3ccc(N4CC5(CN(C)C5)C4)cc3n2C1
Data returned: 5.2

* * *

- system_tested: EGFR Exon19Del/T790M (Homo sapiens, UniProt P00533, DEL746-750/T790M)
- Construct: purchased Carna Bio
- Sequence (P00533 with tags, fused parts or gaps DEL746-750/T790M limits assumed): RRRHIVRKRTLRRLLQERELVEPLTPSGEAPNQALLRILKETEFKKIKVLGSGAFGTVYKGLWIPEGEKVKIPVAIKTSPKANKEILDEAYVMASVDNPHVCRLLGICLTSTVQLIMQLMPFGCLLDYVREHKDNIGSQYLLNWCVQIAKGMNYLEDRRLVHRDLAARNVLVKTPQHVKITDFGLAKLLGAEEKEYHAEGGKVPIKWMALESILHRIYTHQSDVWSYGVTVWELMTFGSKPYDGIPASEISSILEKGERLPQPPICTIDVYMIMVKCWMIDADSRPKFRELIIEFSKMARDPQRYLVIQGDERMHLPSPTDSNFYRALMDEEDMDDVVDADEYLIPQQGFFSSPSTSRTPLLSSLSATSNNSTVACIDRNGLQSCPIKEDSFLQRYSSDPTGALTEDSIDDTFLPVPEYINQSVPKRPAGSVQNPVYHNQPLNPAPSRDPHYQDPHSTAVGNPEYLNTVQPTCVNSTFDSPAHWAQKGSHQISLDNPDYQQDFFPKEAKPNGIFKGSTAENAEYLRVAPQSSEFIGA
- experiment: Inhibition of EGFR Exon19Del/T790M biochemical enzymatic activity (HTRF)
- details: EGFR Exon19Del/T790M, 1 mM ATP, 1 h at room temperature, read-out: IC50 @Del19-T790M
- Experimental: Biological Example 1: Inhibition of EGFR WT and Mutant Biochemical Enzymatic Activity The inhibition potency of compounds against these enzymes was assessed using Homogenous Time Resolved Fluorescence approach (HTRF, CisBio. Cat No. 62TKOPEJ). Inhibitory effects of the compounds were determined by measuring the enzymatic activity of EGFR enzyme phosphorylates 1 μM TK Substrate-biotin in the presence of 1 mM adenosine-5′-triphosphate (ATP) and varying concentrations of the test compound. […]
Lab note - cut at 8 nM for IC50: T if strictly below, F if not.

Data request: Strictly below 8 nM in IC50? Cc1cc2cc(n1)-c1cnn(C)c1OCCN1CC3CCC(C3)(C1)n1c(nc3ccc(N(C)CCCN(C)C)cc31)NC2=O (single isomer, unassigned) [Example B45A]
Data returned: F

Data request: Input Cc1cc2cc(n1)-c1cnn(C)c1OCCN1CC3CCC(C3)(C1)n1c(nc3ccc(N4CCC(N5CCN(C)CC5)CC4)cc31)NC2=O (single isomer, unassigned) [Example B59A]
Data returned: F

Data request: Input Cc1cc2cc(n1)-c1cnn(C)c1OCCN1CC3CCC(C3)(C1)n1c(nc3ccc(N4CCN(C5CC5)CC4)cc31)NC2=O (single isomer, unassigned) [Example B55B]
Data returned: T

Data request: Input Cc1cc2cc(n1)-c1cnn(C)c1OCCCCCn1c(nc3ccc4c(c31)CCN(C1COC1)C4)NC2=O [Example B17]
Data returned: F

Data request: Input Cc1cc2cc(n1)-c1cnn(C)c1OCCN1CCOCC(C1)n1c(nc3ccccc31)NC2=O (single isomer, unassigned) [Example B7A]
Data returned: F

Data request: Input Cc1cc2cc(n1)-c1cnn(C)c1OCCN1CC3CCC(C3)(C1)n1c(nc3ccc(N4CCN(C(C)C)CC4)cc31)NC2=O (single isomer, unassigned) [Example B57B]
Data returned: T

Data request: Input Cc1cc2cc(n1)-c1cnn(C)c1OCCN1CC3CCC(C3)(C1)n1c(nc3ccc(N4CCC(N5CCOCC5)C4)cc31)NC2=O (single isomer, unassigned) [Example B44B2]
Data returned: F

Data request: Input Cc1cc2cc(n1)-c1cnn(C)c1OCCN1CC3CCC(C3)(C1)n1c(nc3ccc(N4CCOCC4)cc31)NC2=O (single isomer, unassigned) [Example B10B]
Data returned: F

Data request: Input Cc1cc2cc(n1)-c1cnn(C)c1OCCN1CC3CCC(CC3)(C1)n1c(nc3ccc(N4CC[C@H](N(C)C)C4)cc31)NC2=O [Example B28]
Data returned: F

Data request: Input Cc1cc2cc(n1)-c1cnn(C)c1OCCN1CC3CCC(C3)(C1)n1c(nc3ccc(N4CCC5(CC4)CCN5C)cc31)NC2=O (single isomer, unassigned) [Example B54A]
Data returned: F

Data request: Input COCCN(C)c1ccc2nc3n(c2c1)C12CCC(CN(CCOc4c(cnn4C)-c4cc(cc(C)n4)C(=O)N3)C1)C2 (single isomer, unassigned) [Example B46A]
Data returned: F

Data request: Input Cc1cc2cc(n1)-c1cnn(C)c1OCCN1CC3CCC(C3)(C1)n1c(nc3ccc(N4CCN(C)CC4)cc31)NC2=O (stereo not drawn) [Example B9B]
Data returned: T
